test system: MDA-MB-231; assay: cells; details: Homo sapiens, MDA-MB-231, 72 h
Description: Antiproliferative activity against human MDA-MB-231 cells assessed as inhibition of cell proliferation incubated for 72 hrs by MTT assay
The label condition met is reserved for IC50 strictly under 5 µM; condition not met covers values equal to or above it.

A selection of reference data follows.
| structure.as.smiles | classification |
| --- | --- |
| Cc1sc2c(c1C)C(c1ccc(Cl)cc1)=N[C@@H](CC(=O)NCCN1CCN(C(=O)CCl)CC1)c1nnc(C)n1-2 | condition not met |
| Cc1sc2c(c1C)C(c1ccc(Cl)cc1)=N[C@@H](CC(=O)NCCC1CCN(C(=O)CCl)CC1)c1nnc(C)n1-2 | condition met |

Pending molecule:
I wonder whether Cc1sc2c(c1C)C(c1ccc(Cl)cc1)=N[C@@H](CC(=O)OC(C)(C)C)c1nnc(C)n1-2 has IC50 below 5 µM. Can you tell?
condition not met

###

Reported log10 IC50 is given for each of the following molecules.
test system: BT-549; assay: cells; conditions: Homo sapiens, BT-549, 72 h
Description: Antiproliferative activity against human BT-549 cells assessed as inhibition of cell proliferation incubated for 72 hrs by MTT assay
# log10 transformed; quantity=IC50; unit=µM

| structure.as.smiles | recorded.metric | val |
| --- | --- | --- |
| Cc1sc2c(c1C)C(c1ccc(Cl)cc1)=N[C@@H](CC(=O)NCCCCCNC(=O)CCl)c1nnc(C)n1-2 | log10 IC50 | 0.42 |
| Cc1sc2c(c1C)C(c1ccc(Cl)cc1)=N[C@@H](CC(=O)Nc1ccc(CCNC(=O)CCl)cc1)c1nnc(C)n1-2 | log10 IC50 | 1.23 |
| Cc1sc2c(c1C)C(c1ccc(Cl)cc1)=N[C@@H](CC(=O)NCCc1ccc(NC(=O)CCl)cc1)c1nnc(C)n1-2 | log10 IC50 | -0.07 |
| Cc1sc2c(c1C)C(c1ccc(Cl)cc1)=N[C@@H](CC(=O)NCC1CCN(C(=O)CCl)CC1)c1nnc(C)n1-2 | log10 IC50 | -0.14 |

Below: the item to evaluate.
Which value of log10 IC50 has been reported for Cc1sc2c(c1C)C(c1ccc(Cl)cc1)=N[C@@H](CC(=O)NCCC1CCN(C(=O)CCl)CC1)c1nnc(C)n1-2 in the records?
0.50

###

Reported log10 of IC50 at 72 h is given for each of the following compounds.
test: Cytotoxicity against human MCF-10A cells assessed as inhibition of cell proliferation incubated for 72 hrs by MTT assay; type: toxicity, cell-based
# log10 transformed; quantity=IC50 at 72 h; unit=nM

The examples below pair each entry with its known result.
| structure.as.smiles | recorded.metric | val |
| --- | --- | --- |
| Cc1sc2c(c1C)C(c1ccc(Cl)cc1)=N[C@@H](CC(=O)NCC1CCN(C(=O)CCl)CC1)c1nnc(C)n1-2 | log10 of IC50 at 72 h | 3.17 |
| Cc1sc2c(c1C)C(c1ccc(Cl)cc1)=N[C@@H](CC(=O)NCCc1ccc(NC(=O)CCl)cc1)c1nnc(C)n1-2 | log10 of IC50 at 72 h | 3.19 |
| Cc1sc2c(c1C)C(c1ccc(Cl)cc1)=N[C@@H](CC(=O)N1CCN(C(=O)CCl)CC1)c1nnc(C)n1-2 | log10 of IC50 at 72 h | 3.06 |

Which value of log10 of IC50 at 72 h has been reported for Cc1sc2c(c1C)C(c1ccc(Cl)cc1)=N[C@@H](CC(=O)OC(C)(C)C)c1nnc(C)n1-2 in the records?
4.67

Which value of log10 of IC50 at 72 h has been reported for Cc1sc2c(c1C)C(c1ccc(Cl)cc1)=N[C@@H](CC(=O)NC1CCN(C(=O)CCl)CC1)c1nnc(C)n1-2 in the records?
3.41
